# Test name: pharmacokinetic study in mouse
# Format: in vivo
# Measurement setup: plasma, po, p.o. 5 mg/kg, ICR mice
Assay metric: Cmax (ng/mL)

1. CC(=O)Nc1ccc(-c2nc3c(c(=O)n(C)c(=O)n3C)n2-c2cccc(F)c2)cc1    236

----------
# Test name: pharmacokinetic study in mouse
# Type: in vivo
# Measurement setup: plasma, iv, i.v. 5 mg/kg, ICR mice
Assay metric: AUC(0-inf) (ng·h/mL)

1) CC(=O)Nc1ccc(-c2nc3c(c(=O)n(C)c(=O)n3C)n2-c2cccc(F)c2)cc1    3410

----------
# Test name: pharmacokinetic study in mouse
# Format: in vivo
# Measurement setup: plasma, iv, i.v. 5 mg/kg, ICR mice, read-out: AUC0–24hr
Assay metric: AUC(0-t) (ng·h/mL)

1) CC(=O)Nc1ccc(-c2nc3c(c(=O)n(C)c(=O)n3C)n2-c2cccc(F)c2)cc1    3190

----------
# Test name: pharmacokinetic study in mouse
# Assay type: in vivo
# Measurement setup: plasma, iv, i.v. 5 mg/kg, ICR mice
Assay metric: clearance (mL/min/kg)

1. CC(=O)Nc1ccc(-c2nc3c(c(=O)n(C)c(=O)n3C)n2-c2cccc(F)c2)cc1    24.7

----------
# Test name: tissue distribution, tissue-to-plasma ratio
# Format: in vivo, BALB/c nude mice bearing SkBr3 xenograft
# Measurement setup: BALB/c nude, mouse, tumor; PO 10 mg/kg, 30 min post-dose; read-out: tissue-to-plasma ratio (KP value), tumor
Assay metric: Kp at 0.5 h

1) CC(=O)Nc1ccc(-c2nc3c(c(=O)n(C)c(=O)n3C)n2-c2cccc(F)c2)cc1    2.06

----------
# Assayed target: PI3Kα (Homo sapiens, UniProt P42336)
# Sequence (P42336 whole entry): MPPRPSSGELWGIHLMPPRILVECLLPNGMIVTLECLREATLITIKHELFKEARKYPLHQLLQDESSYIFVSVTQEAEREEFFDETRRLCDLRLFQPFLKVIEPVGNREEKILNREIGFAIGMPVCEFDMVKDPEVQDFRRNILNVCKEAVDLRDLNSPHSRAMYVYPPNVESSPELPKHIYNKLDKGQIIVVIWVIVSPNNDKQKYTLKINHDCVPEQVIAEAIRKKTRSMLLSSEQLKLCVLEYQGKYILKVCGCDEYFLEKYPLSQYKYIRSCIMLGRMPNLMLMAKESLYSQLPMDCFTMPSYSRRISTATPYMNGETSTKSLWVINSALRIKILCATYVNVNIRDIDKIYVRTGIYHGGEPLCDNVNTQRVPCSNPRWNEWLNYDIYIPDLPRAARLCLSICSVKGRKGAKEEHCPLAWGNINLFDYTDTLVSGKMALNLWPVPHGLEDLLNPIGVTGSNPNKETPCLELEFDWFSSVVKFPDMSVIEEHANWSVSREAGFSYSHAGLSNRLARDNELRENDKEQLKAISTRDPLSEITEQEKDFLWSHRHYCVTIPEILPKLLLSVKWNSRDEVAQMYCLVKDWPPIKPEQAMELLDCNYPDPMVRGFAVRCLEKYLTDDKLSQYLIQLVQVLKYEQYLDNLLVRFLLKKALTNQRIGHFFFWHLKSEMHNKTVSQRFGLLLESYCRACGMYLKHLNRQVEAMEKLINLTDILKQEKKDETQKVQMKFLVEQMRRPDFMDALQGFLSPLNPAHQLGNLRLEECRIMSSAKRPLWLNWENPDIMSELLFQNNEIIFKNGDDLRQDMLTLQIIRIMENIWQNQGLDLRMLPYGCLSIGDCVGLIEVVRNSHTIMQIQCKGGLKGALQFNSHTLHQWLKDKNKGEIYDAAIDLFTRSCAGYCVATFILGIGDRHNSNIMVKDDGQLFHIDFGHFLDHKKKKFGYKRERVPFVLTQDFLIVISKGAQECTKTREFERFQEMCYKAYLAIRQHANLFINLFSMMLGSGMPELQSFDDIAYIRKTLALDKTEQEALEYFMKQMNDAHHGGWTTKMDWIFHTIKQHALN
# Sequence (P27986 whole entry partner): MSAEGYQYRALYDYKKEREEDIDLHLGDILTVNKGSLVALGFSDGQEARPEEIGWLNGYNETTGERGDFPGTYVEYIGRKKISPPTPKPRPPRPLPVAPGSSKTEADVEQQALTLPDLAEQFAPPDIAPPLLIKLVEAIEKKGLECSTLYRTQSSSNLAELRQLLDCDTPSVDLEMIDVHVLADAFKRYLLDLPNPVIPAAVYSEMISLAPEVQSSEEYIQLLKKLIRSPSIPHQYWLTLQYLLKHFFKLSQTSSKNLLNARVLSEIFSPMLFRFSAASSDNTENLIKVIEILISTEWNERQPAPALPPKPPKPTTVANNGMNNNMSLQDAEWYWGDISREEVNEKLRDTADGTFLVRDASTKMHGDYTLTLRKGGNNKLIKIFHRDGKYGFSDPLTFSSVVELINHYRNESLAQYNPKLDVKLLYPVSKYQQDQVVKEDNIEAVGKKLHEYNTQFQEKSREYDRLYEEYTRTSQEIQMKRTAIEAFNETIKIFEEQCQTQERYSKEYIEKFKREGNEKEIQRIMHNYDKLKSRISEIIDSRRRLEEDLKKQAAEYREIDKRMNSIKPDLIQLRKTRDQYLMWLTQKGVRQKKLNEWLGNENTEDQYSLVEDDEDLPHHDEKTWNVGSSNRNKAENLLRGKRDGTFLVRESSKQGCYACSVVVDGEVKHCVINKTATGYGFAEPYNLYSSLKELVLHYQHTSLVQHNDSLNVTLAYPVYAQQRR
pIC50: −log10 of the molar value.
Assay metric: pIC50

1. CC(=O)Nc1ccc(-c2nc3c(c(=O)n(C)c(=O)n3C)n2-c2cccc(F)c2)cc1 [HS-133]    6.00

----------
# Test name: pharmacokinetic study in mouse
# Type: in vivo
# Measurement setup: plasma, iv, i.v. 5 mg/kg, ICR mice, read-out: Vss
Assay metric: Vd (L/kg)

1) CC(=O)Nc1ccc(-c2nc3c(c(=O)n(C)c(=O)n3C)n2-c2cccc(F)c2)cc1    12

----------
# Test name: pharmacokinetic study in mouse
# Assay type: in vivo
# Measurement setup: ICR, plasma, po, 5 mg/kg, p.o. 5 mg/kg, ICR mice
Assay metric: Tmax

1) CC(=O)Nc1ccc(-c2nc3c(c(=O)n(C)c(=O)n3C)n2-c2cccc(F)c2)cc1 [HS-133]    ~4.8 h

----------
# Test name: pharmacokinetic study in mouse
# Assay type: in vivo
# Measurement setup: plasma, po, p.o. 5 mg/kg, ICR mice
Assay metric: AUC(0-inf) (ng·h/mL)

1) CC(=O)Nc1ccc(-c2nc3c(c(=O)n(C)c(=O)n3C)n2-c2cccc(F)c2)cc1    3260

----------
# Test name: pharmacokinetic study in mouse
# Format: in vivo
# Measurement setup: plasma, po, p.o. 5 mg/kg, ICR mice, read-out: T1/2, λ (converted)
Assay metric: half-life (h)

1) CC(=O)Nc1ccc(-c2nc3c(c(=O)n(C)c(=O)n3C)n2-c2cccc(F)c2)cc1 [HS-133]    6.1

----------
# Test name: pharmacokinetic study in mouse
# Format: in vivo
# Measurement setup: plasma, oral, p.o. vs i.v. 5 mg/kg, ICR mice, read-out: F (bioavailability)
Assay metric: bioavailability (%)

1) CC(=O)Nc1ccc(-c2nc3c(c(=O)n(C)c(=O)n3C)n2-c2cccc(F)c2)cc1    95.6
